Tested Target: Prostaglandin E2 receptor EP2 subtype (Homo sapiens, UniProt P43116)
Sequence (P43116 whole entry): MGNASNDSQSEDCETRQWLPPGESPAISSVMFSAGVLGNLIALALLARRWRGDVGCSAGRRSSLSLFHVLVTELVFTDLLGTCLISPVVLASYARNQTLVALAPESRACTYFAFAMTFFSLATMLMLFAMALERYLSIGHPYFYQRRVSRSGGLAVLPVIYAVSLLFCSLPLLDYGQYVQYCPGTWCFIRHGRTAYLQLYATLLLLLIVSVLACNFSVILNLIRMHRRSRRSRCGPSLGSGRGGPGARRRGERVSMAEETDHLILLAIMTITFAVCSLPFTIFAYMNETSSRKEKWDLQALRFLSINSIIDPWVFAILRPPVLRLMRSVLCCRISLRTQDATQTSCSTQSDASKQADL
Protocol Notes: Agonist activity at human EP2 receptor expressed in HEK293 cells after 24 hrs beta-arrestin recruitment assay relative to PGE2
Type: cell-based
Measured Metric: Emax (%)

Worked examples, 3 molecules total:
| Smiles Representation | Emax / % |
| --- | --- |
| Cc1cc(OC[C@@H]2[C@H]3CC[C@H](c4nc(C(=O)O)cs4)O[C@H]3C[C@@H]2O)ccc1Cl | 21 |
| Cc1cc(OC[C@@H]2[C@H]3CC[C@H](c4ccc(C(=O)O)o4)O[C@H]3C[C@H]2O)ccc1Cl | 17 |
| COc1cc(OC[C@@H]2[C@H]3CC[C@H](c4nc(C(=O)O)cs4)O[C@H]3C[C@H]2O)ccc1Cl | 19 |

[I] CC(C)c1cc(OC[C@@H]2[C@H]3CC[C@H](c4nc(C(=O)O)cs4)O[C@H]3C[C@H]2O)ccc1Cl
[II] Cc1cc(OC[C@@H]2[C@H]3CC[C@H](c4nc(C(=O)O)cs4)O[C@H]3C[C@H]2O)cc(C)c1Cl
Kindly identify the item with the lower Emax figure among these two: I and II Your answer should be the label of the entry you select.
I

// provenance: ChEMBL document CHEMBL3792278
